target: RSV F protein of subtype B (18537) on recombinant mKate-RSV (Respiratory syncytial virus subtype B …, UniProt P13843 26-574); assay: cell-based or functional assay
quantity-measured: Neut IC50 (µg/ml) subtype B

// query I have this binder here, ADI-14556 (antibody, V domains shown) VH: EVQLVESGGGLVQPGGSLRLSCAASGFTFRSYWMTWVRQAPGKGLEWVASINDEGNTKYYVDSLKGRFTISRDNAKNSLYLQMNSLRAEDTAVYYCARESGLPRGAFQIWGPGTMVTVSS VL: EIVLTQSPVTLSLSPGERATLSCRASQSVGTFLAWYQHKPGQAPRLLIYDASNRASAIPARFSGSGSGTDFTLTISSLEPEDFAVYYCQHRSDWWTFGQGTKVEIK , and I need its recorded Neut IC50 (µg/ml) subtype B.
// result > 10 µg/mL

// query I have this binder here, ADI-14555 (antibody, V domains shown) VH: QVQLVQSGGGLVQPGGSLRLSCAASGLTFSSYAMSWVRQAPGKELEWVSSISESGVDTYYADSVKGRFTVSRDNSKSTLYLQMSSLGGDDTAVYYCAKAYCSNKACHGGYFDYWGQGTLVTVSS VL: ETTLTQSPDTLSLSPGERATLSCRASQSVRNYLAWYRQKPGQAPRLLIYDASNLATGIPARFSGSGSGTDFTLTISSLEPEDFAVYYCHQRSDWPLTFGPGTKVEIK , and I need its recorded Neut IC50 (µg/ml) subtype B.
// result > 10 µg/mL

// query I have this binder here, ADI-14533 (antibody, V domains shown) VH: QVQLVQSGAEVKKPGSSVIISCKASGGTFRNYGFTWVRQAPGQGLEWLGGIIPMFETVRYAQKFQGRVTITADENTNTAFLAVSSLRSEDTGVYFCARDLQTGIMSSVRSEYRGFMDPWGQGTLVTVSS VL: QSVLTQPPSVSGAPRQRVTISCSGSSSNIGTNAVNWYQQLPGKSPKVLIYYDELVPSGVSDRFSGSRSGTSASLAISGLRSEDEAYYYCAAWDDSLNGWVFGGGTQLTVL , and I need its recorded Neut IC50 (µg/ml) subtype B.
// result 0.442 µg/mL

// query I have this binder here, ADI-14527 (antibody, V domains shown, IgG; also called Antibody Number 87) VH: QVQLVQSGAELKRPGSSVKVSCKASGVYLTSVAVNWVRQVPGHGFEWMGGILTGFGKVRHAQAFENRATLTADASTNTAYLELSGLQAEDTAAYYCAIIDPQDCTAASCFWVNWLDPWGQGTLVTVSS VL: EIVLTQSPGTLTVSPGERATLSCRASQSVLSSHLAWYQQKPGQAPRLLIYAASSRATDVPDRFSGSGSGTDFTLTISRLEPQDFAVYYCQQYGSSPITFGQGTRLEIK , and I need its recorded Neut IC50 (µg/ml) subtype B.
// result > 10 µg/mL

// query I have this binder here, ADI-14542 (antibody, V domains shown) VH: QVQLVQSGAEVKKPGESLKISCKGSGYVFSSYWVAWVRQMPGKGLEWMGIIYPHDSDTRYSPAFQGQVTISADKSINTAYLQWSSLKASDTAMYYCTIILIPAPIRAPDGFDIWGQGTTVTVSS VL: NFMLTQPHSVSESPGKTVTISCTGSGGTIASNYVQWYQQRPGSVPTTVIYENNERPSGVPDRFSGSIDRSSNSASLTISGLKTEDEADYYCQSYDSSYHVVFGGGTKVTVL , and I need its recorded Neut IC50 (µg/ml) subtype B.
// result 4.3 µg/mL

// query I have this binder here, ADI-14528 (antibody, V domains shown, IgG; also called Antibody Number 88) VH: QVQLVQSGAEVKKPGSSVKVSCKVAGGSFSNYAIAWLRQAPGQGLEWMGGIIPAFNRAMYARKFQDRVTITAYASTTTAYLDITGLRSEDTALYYCARPAGDFGDLKWVRSPFDYWGQGTLVTVSS VL: ETTLTQSPGTLSVSPGERATLSCRASQEVGINLAWYQQKPGQAPRLLIYGASTRATDVPARFSGSGSGTEFTLTISSLQSEDFAVYYCQEYNDWPPQLTFGPGTKVDIK , and I need its recorded Neut IC50 (µg/ml) subtype B.
// result 0.705 µg/mL

// query I have this binder here, ADI-14544 (antibody, V domains shown) VH: QVQLVQSGAEVKKPGESLKISCKGAGFGSTNSWIGWVRQMPGKGLEWMGVIFPGDSDTKYSPTFQGQVTISVDKSINTAYLQWSSLKASDTAIYYCARMLASVGLSNFDAWGQGTLVTVSS VL: QPVLTQPPSVSLAPGKTATITCGGNNIGGKSVHWYQQKPGQAPVLVIDYDSDRPSGIPERFSGSNSGNTATLTINRVEAGDEADYYCQVWDSISDHVLFGGGTKLTVL , and I need its recorded Neut IC50 (µg/ml) subtype B.
// result > 10 µg/mL

// query I have this binder here, ADI-14552 (antibody, V domains shown, IgG) VH: EVQLLESGPELKKPGSSVKVSCKASADTFNGHSIAWVRQAPGQGLEWVGGFIPIFGKAYYAQNFQGTVTISADSSTRTVYMDLFNLRSEDTAVYYCARSRKNVIGDTSAWEHMYFYMDVWGTGTTVTVSS VL: EIVLTQSPGTLSLSPGERVTLSCRASESINKNTYLAWYQQKPGQAPRLLIYGASSRATGIPDRFSGSGSGTDFTLTISRLEPEDSAVYYCQQYGRSMTFGGGTKVEIK , and I need its recorded Neut IC50 (µg/ml) subtype B.
// result > 10 µg/mL

// query I have this binder here, ADI-14563 (antibody, V domains shown) VH: QVQLVQSGGGLAQPGGSLRLSCAASGFIFSVYEMDWVRQAPGKGLEWLSYIDITGNSVTYADSVRGRFTISRDNARNSLYLQMDSLRVEDTAVYYCVRDSRGPTTQWLTGYFDFWGQGTTVTVSS VL: DIRMTQSPATLSLSPGERATLSCRASQSVSNYLAWYQQKPGQAPRLLIYDVSNRATGIPARFSGSGSGTDFTLTISSLEPEDFAVYYCQQRRNWPPLTFGGGTKVEVK , and I need its recorded Neut IC50 (µg/ml) subtype B.
// result > 10 µg/mL

// query I have this binder here, ADI-14530 (antibody, V domains shown, IgG; also called Antibody Number 90) VH: QVQLVQSGAEVKKPGSSVKVSCKVVGGSFSNYGIGWVRQAPGQGPEWMGGIIPAFKTAKYAKKFQDRVTITADESSSTAYMEVRGLRPDDTALYYCARPEGDFGDLKWVRSPFDYWGQGTLVTVSS VL: ETTLTQSPATLSVSPGERVTLSCRASQDVSINLAWYQQKPGQAPRLLIYGASTRATDVPARFSGSGSGTDFTLTISSLQSEDFAFYYCQEYNDWPPQLTFGPGTKVEIK , and I need its recorded Neut IC50 (µg/ml) subtype B.
// result > 10 µg/mL
